Parameter: Soybean plant response rating. Scope: all listed entries.
System: soybean
Assay: Test B pre/postemergence soybean
Type: in vivo, Glycine max
Conditions: Rate 62 g/ha, Postemergence; scale 0 to 10, 0 no effect, 10 complete control
reported endpoint: Soybean plant response rating

>>> observed_value("CC(C)N(C(=O)n1oc(=O)n(COCC[Si](C)(C)C)c1=O)c1ccc(Cl)cc1")
0
>>> observed_value("CC(C)N(C(=O)n1oc(=O)n(CCC#N)c1=O)c1ccccc1")
0
>>> observed_value("CC(Cl)=CCn1c(=O)on(C(=O)N(c2ccc(F)cc2)C(C)C)c1=O")
2
>>> observed_value("C=CC(OC)n1c(=O)on(C(=O)N(c2ccc(F)cc2)C(C)C)c1=O (stereo not shown)")
1

Source listed as patent US6737383B1.
